Test system: endosomes of Jurkat lymphocytes
Run Description: Endosome disruption in Jurkat lymphocytes: release of carboxyfluorescein from disulfide probe Compound 2, flow cytometry
Measurement Conditions: Table 2; % of the effect of compound 1, calculated span of dose-response curve, ± standard deviation; Jurkat, 14 h
Non-standard residues stand in square brackets, D forms with d. Residues, ends and D or L forms follow the SMILES beside them. Aib = CC(C)(N)C(=O)O
Readout Name: Efficacy (% of 1) (%)
Write down the numeric answer in % and omit the unit.

Recorded results for 4 compounds are shown here.
- Compound: "CC(C)[C@H](NC(=O)[C@@H](NC(=O)[C@@H]1CCCN1C(=O)[C@H](C)NC(=O)[C@H](Cc1c[nH]c2ccccc12)NC(=O)[C@H](Cc1ccc(O)cc1)NC(=O)[C@H](C)NC(=O)[C@H](Cc1c[nH]c2ccccc12)NC(=O)[C@H](Cc1c[nH]c2ccccc12)NC(=O)C(C)(C)NC(=O)C(C)(C)NC(=O)C(C)(C)NC(=O)C(C)(C)N)C(C)C)C(N)=O [Compound 49] (H-[Aib][Aib][Aib][Aib]WWAYWAPVV-NH2)"
  Target Under Test: "endosomes of Jurkat lymphocytes"
  Result Unit: "%"
  Efficacy (% of 1): 35
- Compound: "CC(C)[C@H](NC(=O)[C@@H](NC(=O)[C@@H]1CCCN1C(=O)[C@@H]1CCCN1C(=O)[C@H](Cc1ccc(O)cc1)NC(=O)[C@H](Cc1c[nH]c2ccccc12)NC(=O)[C@H](Cc1ccc(O)cc1)NC(=O)[C@H](Cc1c[nH]c2ccccc12)NC(=O)[C@H](C)NC(=O)[C@H](Cc1ccc(O)cc1)NC(=O)[C@H](Cc1c[nH]c2ccccc12)NC(=O)[C@H](C)NC(=O)C(C)(C)NC(=O)C(C)(C)NC(=O)C(C)(C)NC(=O)C(C)(C)N)C(C)C)C(N)=O [Compound 81] (H-[Aib][Aib][Aib][Aib]AWYAWYWYPPVV-NH2)"
  Target Under Test: "endosomes of Jurkat lymphocytes"
  Result Unit: "%"
  Efficacy (% of 1): 83
- Compound: "CC(C)[C@H](NC(=O)[C@@H]1CCCN1C(=O)[C@@H]1CCCN1C(=O)[C@H](Cc1c[nH]c2ccccc12)NC(=O)[C@H](Cc1ccc(O)cc1)NC(=O)[C@H](C)NC(=O)[C@H](Cc1c[nH]c2ccccc12)NC(=O)[C@H](Cc1c[nH]c2ccccc12)NC(=O)C(C)(C)NC(=O)C(C)(C)NC(=O)C(C)(C)NC(=O)C(C)(C)N)C(=O)N[C@@H](C)C(N)=O [Compound 43] (H-[Aib][Aib][Aib][Aib]WWAYWPPVA-NH2)"
  Target Under Test: "endosomes of Jurkat lymphocytes"
  Result Unit: "%"
  Efficacy (% of 1): 57
- Compound: "CC(C)[C@H](NC(=O)[C@@H](NC(=O)[C@@H]1CCCN1C(=O)[C@@H]1CCCN1C(=O)[C@H](Cc1ccc(O)cc1)NC(=O)[C@H](Cc1c[nH]c2ccccc12)NC(=O)[C@H](C)NC(=O)[C@H](Cc1c[nH]c2ccccc12)NC(=O)[C@H](Cc1c[nH]c2ccccc12)NC(=O)C(C)(C)NC(=O)C(C)(C)NC(=O)C(C)(C)NC(=O)C(C)(C)N)C(C)C)C(N)=O [Compound 54] (H-[Aib][Aib][Aib][Aib]WWAWYPPVV-NH2)"
  Target Under Test: "endosomes of Jurkat lymphocytes"
  Result Unit: "%"
  Efficacy (% of 1): 101

Here is the next item to consider.
q: May I ask what Efficacy (% of 1) has been recorded for CC(C)[C@H](NC(=O)[C@@H](NC(=O)[C@H](C)NC(=O)[C@@H]1CCCN1C(=O)[C@H](Cc1c[nH]c2ccccc12)NC(=O)[C@H](Cc1ccc(O)cc1)NC(=O)[C@H](C)NC(=O)[C@H](Cc1c[nH]c2ccccc12)NC(=O)[C@H](Cc1c[nH]c2ccccc12)NC(=O)C(C)(C)NC(=O)C(C)(C)NC(=O)C(C)(C)NC(=O)C(C)(C)N)C(C)C)C(N)=O [Compound 50] (H-[Aib][Aib][Aib][Aib]WWAYWPAVV-NH2) ?
a: 54
